Where do the numbers come from? From PubChem BioAssay (Tox21).

assay_notes: qHTS assay to identify small molecule antagonists of the retinoid-related orphan receptor gamma (ROR-gamma) signaling pathway - cell viability counter screen (AID 1159520); note: nearly all actives have a fitted effect of over 50% in size
setup_conditions: Tet-on RORgamma CHO cells viability, ATP luminescence, 16 h; series mostly up to 92.4 µM
Records with an inconclusive call do not appear. Calls of active or inactive are those of the source. Calls come from the whole dose curve; as a rule, active = well fitted cell-killing curve with a large enough effect in the repeat runs; inconclusive = weak or mixed curves, or effect the other way; inactive = no such curve, though single readings can be large or run the other way.
A correct response names exactly one class from 1 for active, -1 for inactive

Example cases with answers are listed next.
| molecule | assigned_label |
| --- | --- |
| COC(=O)c1ccccc1C | -1 |
| C=CC(=O)OCCOC(=O)C=C | -1 |
| CCOc1ccc2ccccc2c1C(=O)N[C@@H]1C(=O)N2[C@@H]1SC(C)(C)[C@@H]2C(=O)O | -1 |

Which result was noted for this molecule in the test: C=C(C)c1cccc(C(=C)C)c1
-1

Test call, this molecule: CCO[Si](OCC)(OCC)OCC
-1

Hi, do you know how Cc1nc2n(c(=O)c1CCN1CCC(c3noc4cc(F)ccc34)CC1)CCCC2 came out in this test?
-1

// param item: CC(C)=CCNc1ncnc2c1ncn2[C@@H]1O[C@H](CO)[C@@H](O)[C@H]1O ; yields the recorded call
1

How was CCC(CC)C(C)CCOC(C)=O (configuration not stated) classified in this test?
-1

Field: outcome | Entry: CCCCCCCCCCC[C@@H](C[C@@H]1OC(=O)[C@H]1CCCCCC)OC(=O)[C@H](CC(C)C)NC=O
1

How was CC1(C)CC(O)CC(C)(C)N1 classified in this test?
-1

Please let me know the test result on file for CCOC(=O)NNc1ccc(N(CC)CC(C)O)nn1 (configuration not stated) .
-1

Check the results log: what was the call for C#C[C@]1(OC(C)=O)CC[C@H]2[C@@H]3CCC4=C/C(=N/O)CC[C@@H]4[C@H]3CC[C@@]21CC ?
-1
